Each recorded value in this set is attributed to ChEMBL document CHEMBL4689842.

- Test system: U2OS
- Test name: Multiplex assay against U2OS
- Assay type: toxicity, cell-based
- Test conditions: human, 24 h, 1 µM, compound concentration 1 uM, replicate 2
The label is y for Population Tubulin-Different-Phenotype (%) below 20% and n for Population Tubulin-Different-Phenotype (%) equal to or exceeding 20%.

INSERT INTO measurements (compound, answer_label) VALUES
  ('N#Cc1cnc(Nc2cc(NC[C@H]3CNCCO3)c(C(F)(F)F)cn2)cn1', 'n');

Exam item: Confirm or reject: Population Tubulin-Different-Phenotype (%) of COc1cc2c(Nc3ccc(NC(=O)c4ccccc4)cc3)ncnc2cc1OCCCN1CCOCC1 lies strictly below 20%
Marked response: n
